- assay.setup: in water, 314.85 K

# structure, solubility (mole fraction)
measured = [
    ("NCCS(=O)(=O)O", 0.0261),
]

###

- assay.setup: in water, 278.05 K

# structure, solubility (mole fraction)
measured = [
    ("NCCS(=O)(=O)O", 0.00796),
]

###

- assay.setup: in water, 298.15 K
endpoint: solubility (mole fraction)

# structure, measured
data = [
    ("NCCS(=O)(=O)O", 0.017),
]

###

- assay.setup: in water, 281.25 K

# structure, solubility (mole fraction)
data = [
    ("NCCS(=O)(=O)O", 0.00932),
]

###

- assay.setup: in water, 321.55 K

# structure, solubility (mole fraction)
data = [
    ("NCCS(=O)(=O)O", 0.0321),
]

###

- assay.setup: in water, 310.95 K
endpoint: solubility (mole fraction)

# structure, endpoint, measured
rows = [
    ("NCCS(=O)(=O)O", "solubility (mole fraction)", 0.0233),
]

###

- assay.setup: in water, 305.35 K

# structure, solubility (mole fraction)
data = [
    ("NCCS(=O)(=O)O", 0.0203),
]

###

- assay.setup: in water, 340.95 K

# structure, solubility (mole fraction)
rows = [
    ("NCCS(=O)(=O)O", 0.0477),
]

###

- assay.setup: in water, 350.25 K

# structure, solubility (mole fraction)
data = [
    ("NCCS(=O)(=O)O", 0.0585),
]

###

- assay.setup: in water, 331.75 K

# structure, solubility (mole fraction)
data = [
    ("NCCS(=O)(=O)O", 0.0403),
]
